Where these numbers come from: patent US20250276077A1

# tested.target: Human EphA2 (ephrin receptor A2) on cells (human, UniProt P29317 25-976)
# Sequence (P29317 25-976): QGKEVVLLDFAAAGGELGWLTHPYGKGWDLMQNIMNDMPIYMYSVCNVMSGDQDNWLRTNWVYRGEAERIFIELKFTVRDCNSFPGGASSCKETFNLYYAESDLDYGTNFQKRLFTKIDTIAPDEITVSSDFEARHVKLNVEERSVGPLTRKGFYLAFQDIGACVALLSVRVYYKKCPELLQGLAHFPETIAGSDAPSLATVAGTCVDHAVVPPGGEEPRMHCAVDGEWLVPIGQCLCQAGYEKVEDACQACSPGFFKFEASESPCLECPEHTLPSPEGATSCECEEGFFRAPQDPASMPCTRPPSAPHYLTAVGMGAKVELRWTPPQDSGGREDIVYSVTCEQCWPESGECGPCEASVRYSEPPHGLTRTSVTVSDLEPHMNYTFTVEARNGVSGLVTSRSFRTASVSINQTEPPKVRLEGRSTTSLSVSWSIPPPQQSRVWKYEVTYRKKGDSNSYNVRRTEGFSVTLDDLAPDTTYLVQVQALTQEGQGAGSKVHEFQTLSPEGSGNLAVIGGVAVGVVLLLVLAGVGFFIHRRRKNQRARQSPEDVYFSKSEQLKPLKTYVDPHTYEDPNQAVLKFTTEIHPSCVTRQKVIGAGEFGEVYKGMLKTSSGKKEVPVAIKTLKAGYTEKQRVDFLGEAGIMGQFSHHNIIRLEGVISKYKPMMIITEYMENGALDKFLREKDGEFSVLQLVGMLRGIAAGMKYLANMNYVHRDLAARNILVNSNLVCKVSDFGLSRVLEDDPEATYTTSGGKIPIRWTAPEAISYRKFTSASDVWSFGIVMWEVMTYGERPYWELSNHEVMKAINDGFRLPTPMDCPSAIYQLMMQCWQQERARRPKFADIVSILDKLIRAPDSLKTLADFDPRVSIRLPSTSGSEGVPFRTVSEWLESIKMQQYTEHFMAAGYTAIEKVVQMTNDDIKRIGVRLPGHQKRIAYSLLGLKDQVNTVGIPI
# procedure.summary: cell-based or functional assay
Provide the recorded ADCC - EC50 (nM), Trial 1, A549 for the entries that follow.
Answers are plain numbers, in nM.

binder	ADCC - EC50 (nM), Trial 1, A549
AB-010664 (antibody, V domains shown) VH: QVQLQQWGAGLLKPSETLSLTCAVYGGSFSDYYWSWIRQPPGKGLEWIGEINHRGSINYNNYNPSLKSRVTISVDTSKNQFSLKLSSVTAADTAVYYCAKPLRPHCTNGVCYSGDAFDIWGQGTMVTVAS VL: SYVLTQPPSVSVAPGQTARITCRGNNIGSKNVHWYQQKPGQAPVLVVYDDSDRPSGIPEQFSGSNSGNTATLTISRVEAGDEADYYCQVWDHSSDHVVFGGGTKLTVL	0.54
AB-010673 (antibody, V domains shown) VH: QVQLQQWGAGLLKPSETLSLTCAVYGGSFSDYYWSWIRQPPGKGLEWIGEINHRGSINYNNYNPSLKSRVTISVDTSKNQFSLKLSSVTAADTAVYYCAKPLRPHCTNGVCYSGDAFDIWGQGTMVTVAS VL: SYVLTQPPSVSVAPGQTARITCGGNNIGSKNVHWYQQKPGQAPVLVVYDDSDRPSGIPEQFSGSNSGNTATLTISRVEAGDEADYYCQVWDSESDHVVFGGGTKLTVL	3.9

Attention now turns to another entry.
Could you tell me which ADCC - EC50 (nM), Trial 1, A549 is on file for AB-010690 (antibody, V domains shown) VH: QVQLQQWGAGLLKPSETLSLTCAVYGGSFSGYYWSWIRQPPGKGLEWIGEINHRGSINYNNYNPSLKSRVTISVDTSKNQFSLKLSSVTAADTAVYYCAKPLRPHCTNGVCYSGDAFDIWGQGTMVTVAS VL: SYVLTQPPSVSVAPGQTARITCRGNNIGYKNVHWYQQKPGQAPVLVVYDDSDRPSGIPERFSGSNSGNTATLTISRVEAGDEADYYCQVWDSSSDHVVFGGGTKLTVL ?
0.19
